Test system: HL-60(TB) leukemia
Assay: NCI tumour cell line growth inhibition, 48 h
Below, each of the compounds is paired with its reported TGI value.

Record excerpt, results attached:
{"compound": "C[C@@]12C[C@@H](c3ccccc3O1)N1CCCSC1=N2", "target": "HL-60(TB) leukemia", "TGI": "> 100 µM"}
{"compound": "O=C(N/N=C/c1cc(Cl)cc(Cl)c1[O-])c1ccccc1O.O=C(N/N=C/c1cc(Cl)cc(Cl)c1[O-])c1ccccc1O.[Fe+2]", "target": "HL-60(TB) leukemia", "TGI": "16.3 µM"}
{"compound": "CC(=O)c1ccc(Nc2nc3ccccc3c3occc23)cc1", "target": "HL-60(TB) leukemia", "TGI": "2.4 µM"}
{"compound": "Cc1cnc(-c2ccc(-c3ccc(NC(=O)Nc4cccc(C(F)(F)F)c4)cc3F)c3c2C(=O)NC3)[nH]1", "target": "HL-60(TB) leukemia", "TGI": "> 100 µM"}
{"compound": "Cc1cc(=O)n2c(cc3cccccc32)n1", "target": "HL-60(TB) leukemia", "TGI": "> 100 µM"}

# get_value(readout='TGI', item= CCCCCCCC(=O)OC(COC(=O)Cc1ccccc1)COC(=O)C(C)(C)C (stereo not given) ) > 100 µM

###

Tested on: COLO 205 colon
Respond with a class label; see active, inactive

{"molecule": "CCOC1Oc2ccccc2C(=O)/C1=C\\Nc1ccc(C(=O)O)c(O)c1 (stereo unspecified)", "cat": "inactive"}
{"molecule": "O=C(CS(=O)c1nc2ccccc2nc1-c1ccccc1)Nc1ccc(Cl)cc1 (stereo unspecified)", "cat": "inactive"}
{"molecule": "C#Cc1cccc(Nc2ncnc3ccc(-c4cnc(N)nc4)cc23)c1", "cat": "inactive"}
{"molecule": "CCCn1cc(/C=N\\N=C2\\C(=O)Nc3ccc(C)cc32)c2ccccc21", "cat": "inactive"}

Dear all, I need the recorded test outcome for NCCNc1ccc(NCCN)c2c1C(=O)c1c(O)ccc(O)c1C2=O , thank you. active

Dear all, I need the recorded test outcome for COc1cc(C(=O)c2cnc(-c3ccc4cc[nH]c4c3)[nH]2)cc(OC)c1OC , thank you. active

Dear all, I need the recorded test outcome for CCCCCCCCCCCCSC1=CC(=O)C=CC1=O , thank you. inactive

Dear all, I need the recorded test outcome for COc1ccc(Cl)cc1Nc1nc(C(F)(F)F)ccc1C(=O)N/N=C/c1ccccc1Cl , thank you. inactive

Dear all, I need the recorded test outcome for COc1ccc(C2CC(c3ccc4ccccc4c3)=NN2c2nc(O)c(C3=c4cc(Cl)ccc4=NC3=O)s2)cc1 (stereo unspecified) , thank you. active

Dear all, I need the recorded test outcome for CN(C)C[C@@H]1CCn2cc(c3ccccc32)C2=C(C(=O)NC2=O)c2cn(c3ccccc23)CCO1 , thank you. inactive

Dear all, I need the recorded test outcome for Oc1ccccc1/C=N\Nc1ccccc1 , thank you. inactive

###

System: U251 CNS
Assay: NCI tumour cell line growth inhibition, 48 h
property.name: TGI

Record excerpt, results attached:
{"molecule": "C=C1C(=O)O[C@H]2C1C[C@H](O)/C(C)=C/CC[C@@]1(C)O[C@H]21 (stereo partly specified)", "target": "U251 CNS", "TGI": "> 100 µM"}
{"molecule": "CCCn1cc(/C=N\\N=C2\\C(=O)Nc3ccc(C)cc32)c2ccccc21", "target": "U251 CNS", "TGI": "17.3 µM"}
{"molecule": "O=C(O)CC(S)C(=O)O.[Li+].[Sb] (stereo unspecified)", "target": "U251 CNS", "TGI": "> 100 µM"}
{"molecule": "C[C@@]12C[C@@H](c3ccccc3O1)N1CCCSC1=N2", "target": "U251 CNS", "TGI": "> 100 µM"}

# get_value(readout='TGI', item= CC(C)(C)c1cc(OCc2n[nH]c(=S)n2N)c(Cl)cc1OCc1n[nH]c(=S)n1N ) > 100 µM

# get_value(readout='TGI', item= CC(=O)OC1CC2C(=O)CC1(C)C2(C)C (stereo unspecified) ) > 100 µM

# get_value(readout='TGI', item= N#C/C(=C\c1ccccc1F)C(=O)c1ccccc1 ) > 100 µM

# get_value(readout='TGI', item= NCCCC(N)(C(=O)O)C(F)F (stereo unspecified) ) > 5000 µM

# get_value(readout='TGI', item= Cn1c2ccccc2c2c(=O)n(CCCC(=O)NCCc3cnc[nH]3)c3c(-c4ccccc4)nnn3c21 ) 18.4 µM

# get_value(readout='TGI', item= Cc1c2c(n3c(nc4ccccc43)c1C#N)NCC2 ) > 10 µM

# get_value(readout='TGI', item= CC(C)OP(=O)(OC(C)C)/C(=N/Nc1ccc([N+](=O)[O-])cc1)NNC(=O)c1ccccc1 ) 76.7 µM

###

Below, each of the compounds is paired with its reported log10 TGI value.
Tested on: HOP-92 NSCLC
Assay: NCI tumour cell line growth inhibition, 48 h
Hello, just confirming the data are log10 of TGI with units of µM.

{"compound": "CC(C)(CN1CCCCC1)C(=O)CC(SCCS(=O)(=O)O)c1ccccc1 (stereo not given)", "log10 TGI": 1.40}
{"compound": "COc1cccc(C2c3cc4c(cc3OC(NNC(N)=O)C2C)OCO4)c1OC (stereo not given)", "log10 TGI": 1.76}
{"compound": "CC(/C=C1\\CCC(CN(C)C)C1=O)c1cccc(Br)c1 (stereo not given)", "log10 TGI": 1.53}
{"compound": "CCc1c2c(nc3ccc(OC(=O)OCc4ccc(B5OC(C)(C)C(C)(C)O5)cc4)cc13)-c1cc3c(c(=O)n1C2)COC(=O)[C@]3(O)CC", "log10 TGI": 1.16}
{"compound": "CCOP(=O)(OCC)C(NC(c1ccccc1)c1ccccc1)c1ccsc1 (stereo not given)", "log10 TGI": 1.49}

# get_value(readout='log10 TGI', item= CC(c1ccccc1)n1c2ccccc2c2c(N)ncnc21 (stereo not given) ) 1.44

# get_value(readout='log10 TGI', item= CCCCCCCCCCCCCP(=O)(OC)OC ) 1.54

# get_value(readout='log10 TGI', item= CC(C)C1CCC(=O)CC1CCCCC1CC(=O)CC1O[Si](C)(C)C(C)(C)C (stereo not given) ) 1.12

###

System: ACHN renal
Assay: NCI tumour cell line growth inhibition, 48 h
Below, each of the compounds is paired with its reported TGI value.
Unit µM implied. Number only.

Record excerpt, results attached:
{"compound": "O=C(Nc1cccc(-n2ccc3c(NC(=O)c4ccccc4)nccc32)c1)c1ccc(Cl)c(Cl)c1", "target": "ACHN renal", "value.unit": "µM", "TGI": 1.71}
{"compound": "O=C(N/N=C\\c1ccc(Cl)cc1)Nc1cccc2ccccc12", "target": "ACHN renal", "value.unit": "µM", "TGI": 4.92}
{"compound": "CCN(CC)CCC(=O)Nc1ccc2sc3ccccc3c(=O)c2n1", "target": "ACHN renal", "value.unit": "µM", "TGI": 38.1}

Entry Cn1c2ccccc2c(=NNc2ccc(S(=O)(=O)N=C(N)N)cc2)c2ccccc21 , system ACHN renal: what TGI was measured? 20.1

Entry CCc1c2c(nc3ccc(OC(=O)OCc4ccc(B5OC(C)(C)C(C)(C)O5)cc4)cc13)-c1cc3c(c(=O)n1C2)COC(=O)[C@]3(O)CC , system ACHN renal: what TGI was measured? 0.432

Entry CN1CCN(C(=O)[C@@]2(C)CC[C@]3(C)CC[C@]4(C)C(=CC[C@@H]5[C@@]6(C)CC[C@H](OC(=O)c7cccnc7)C(C)(C)[C@@H]6CC[C@]54C)[C@@H]3C2)CC1 , system ACHN renal: what TGI was measured? 3.39

Entry CCOC(=O)Cc1ccc(Nc2nc3cc(F)c(F)cc3nc2C(=O)OCC)cc1 , system ACHN renal: what TGI was measured? 33.5

Entry COc1ccc(C(SCCO)(c2ccc(OC)cc2)c2ccc(OC)cc2)cc1 , system ACHN renal: what TGI was measured? 50.2

Entry CC(=O)c1ccc(Nc2nc3ccccc3c3occc23)cc1 , system ACHN renal: what TGI was measured? 60.2

Entry O=C(/C=C/c1ccc(O)c(O)c1)c1ccc(O)cc1O , system ACHN renal: what TGI was measured? 45.3

Entry COc1cc(C(=O)c2cnc(-c3ccc4cc[nH]c4c3)[nH]2)cc(OC)c1OC , system ACHN renal: what TGI was measured? 6.11

Entry C=C1C(=O)O[C@H]2C1C[C@H](O)/C(C)=C/CC[C@@]1(C)O[C@H]21 (stereo partly specified) , system ACHN renal: what TGI was measured? 22

Entry COc1ccc2[nH]cc(C3(c4c[nH]c5ccc(OC)cc45)C(=O)Nc4ccc(Cl)cc43)c2c1 , system ACHN renal: what TGI was measured? 21.9

Entry CC1=C(C(=O)Nc2ccccc2C)C(c2ccccc2O)C(C(=O)Nc2ccccc2C)=C(C)N1 , system ACHN renal: what TGI was measured? 47.9

The values you see were collected from PubChem BioAssay (NCI).
